Read-out: Thrombomodulin, THBD (gene 7056)
PROTOCOL NOTES: BSK_3C_Thrombomodulin: BioMAP Diversity Plus: 3C Assay for Thrombomodulin Biomarker Activity (AID 2283029)
ASSAY CONDITIONS: primary human endothelial cells (HUVEC); actives raise or lower the signal
Description: BSK_3C is a cell-based, multiplexed-readout assay that uses umbilical vein endothelium, a human vascular primary cell, with measurements taken at 24 hours after chemical dosing in a 96-well plate.BSK_3C_Thrombomodulin is an assay component measured in the BSK_3C assay. It measures Thrombomodulin antibody related to regulation of gene expression using ELISA technology.Data from the assay component BSK_3C_Thrombomodulin was analyzed into 1 assay endpoint. […]
The source made the active and inactive calls. Rule for the calls: active = hit-call score of the fitted dose curve at least 0.9, where 1 is the maximum; inactive = score below 0.9.
In this exercise, the only acceptable responses are true (1) = active, false (0) = inactive

- COMPOUND: "O=[N+]([O-])c1ccc(Nc2ccccc2)cc1"
  ANSWER LABEL: "false (0)"
- COMPOUND: "C=CC(Cl)CCl (stereo not given)"
  ANSWER LABEL: "false (0)"
- COMPOUND: "CCCCCCCCCCCCc1cccc(S(=O)(=O)O)c1"
  ANSWER LABEL: "false (0)"
- COMPOUND: "CC(C)(COCC1CO1)COCC1CO1 (stereo not given)"
  ANSWER LABEL: "false (0)"
- COMPOUND: "CCOC(=O)CCN(SN(C)C(=O)Oc1cccc2c1OC(C)(C)C2)C(C)C"
  ANSWER LABEL: "false (0)"
- COMPOUND: "OC(Cc1ccccc1Cl)(Cn1cncn1)C1(Cl)CC1 (stereo not given)"
  ANSWER LABEL: "false (0)"
- COMPOUND: "CCOP(=S)(OCC)OP(=S)(OCC)OCC"
  ANSWER LABEL: "false (0)"
- COMPOUND: "CC(C)=CC1C(C(=O)OCc2cccc(Oc3ccccc3)c2)C1(C)C (stereo not given)"
  ANSWER LABEL: "false (0)"
- COMPOUND: "Cc1cccc(OP(=O)(Oc2cccc(C)c2)Oc2cccc(C)c2)c1"
  ANSWER LABEL: "true (1)"

Let us examine a further case.
q: Entry CN(C)C(=S)S : call = ?
a: false (0)

Provenance of the data: PubChem BioAssay (EPA / NIEHS)
